assay: pH solubility; format: physicochemical; conditions: upper pH
quantity measured: pH Range where Protein is >80% detected as Soluble and A650 <1 OD: High

molecule: SEQID-00100: nutritive polypeptide (protein, listed as Lactobacillus acidophilus) MSEEEIFNKIKDLIADNFEVDKDSITENTNFMNDLDADSIDLVEFILQLEDEFGAEIPDDEAEKIKTVGDAVSYIKSHQG
result: 7.1

molecule: SEQID-00485: nutritive polypeptide naturally produced in Chickpea, recombinantly expressed in E. coli (protein, listed as Cicer arietinum) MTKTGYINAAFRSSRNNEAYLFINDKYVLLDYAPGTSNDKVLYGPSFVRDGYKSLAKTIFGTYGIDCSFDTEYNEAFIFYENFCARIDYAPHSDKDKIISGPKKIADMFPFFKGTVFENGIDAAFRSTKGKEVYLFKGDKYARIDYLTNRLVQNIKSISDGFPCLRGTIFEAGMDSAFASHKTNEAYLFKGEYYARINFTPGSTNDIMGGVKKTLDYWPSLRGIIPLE
result: 7.1

molecule: SEQID-00510: nutritive polypeptide naturally produced in Turkey, recombinantly expressed in E. coli (protein, Meleagris gallopavo, nutritive polypeptide naturally produced in Turkey, recombinantly expressed in E. coli) MVPIAEKMAEKQEEPSNTQNGEPDNAEEGEGKKKKKVKREDLPPFEIVTGERLPAIFFKFQFRNVEYSSGRNKTFLCYVVETQGKESTTSRGYLEDEHAASHAEIAFFNTILPKCESSLRYNITWYVSSSPCVTCADRISETLRKNKNLRLTIMVGRLFMWEEPEMQAALKKMKSAGCKLRIMKPQDFEYVWQNFVEQEEGEEAKAFVPWEDIQENFQYYEEKLAEILQ
result: 7.1
